# measurement.target: glucagon receptor (UniProt P47871 26-477, limits assumed)
# Sequence (P47871 26-477 limits assumed): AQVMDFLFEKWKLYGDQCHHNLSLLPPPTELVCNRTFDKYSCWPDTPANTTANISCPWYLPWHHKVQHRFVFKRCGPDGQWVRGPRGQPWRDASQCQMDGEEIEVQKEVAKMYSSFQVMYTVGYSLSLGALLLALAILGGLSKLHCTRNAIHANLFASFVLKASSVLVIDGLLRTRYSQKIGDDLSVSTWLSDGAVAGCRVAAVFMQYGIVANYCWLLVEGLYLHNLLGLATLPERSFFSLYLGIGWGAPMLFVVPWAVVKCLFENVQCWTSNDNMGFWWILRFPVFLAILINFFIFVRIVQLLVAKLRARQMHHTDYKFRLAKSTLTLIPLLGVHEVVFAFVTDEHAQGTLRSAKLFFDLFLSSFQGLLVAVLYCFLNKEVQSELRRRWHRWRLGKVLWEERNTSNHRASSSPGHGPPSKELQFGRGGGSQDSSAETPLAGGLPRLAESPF
# run.description: cell-based or functional assay
*1 amine or outer side, *2 acyl side, *3 side chain or, on linkers, in order; H or OH if unused. Where no end group is shown, it is not given here. Side-chain parts run from the residue outwards. [ ]: non-standard residue; d: D form. The star is where a group is joined. γGlu = O=C(O)[C@H](CCC(=O)[*:2])N[*:1]; Palmitoyl = CCCCCCCCCCCCCCCC(=O)*; Myristoyl = CCCCCCCCCCCCCC(=O)*; Lauroyl = CCCCCCCCCCCC(=O)*; 40K‑ME = not defined here; 40K‑TE = not defined here; Ac3c = NC1(C(=O)O)CC1; Aib = CC(C)(N)C(=O)O
// reported EC50 (cAMP reporter) per item

# binder, EC50 (cAMP reporter)
records = [
    ("Y[Aib]QGTFTSDYSIYLDEQAAKEFV[Aib]WLLAGGPSSGAPPPSC-NH2 (lactam (positions not given here); also: lactam between underlined residues, underlining not shown) [peptide of SEQ ID NO: 56]", "1.27 nM"),
    ("Y[Aib]QGTFTSDYSIYLDKEAA[Aib]KFVNWLLAGGPSSGAPPPSC(40K‑TE)-NH2 (lactam (positions not given here); reading uncertain; also: lactam between underlined residues, underlining not shown) [peptide of SEQ ID NO: 59]", "0.432 nM"),
    ("Y[Aib]QGTFTSDYSIYLDKQAA[Aib]EFVC(40K‑TE PEG)WLLAGGPSSGAPPPSK(C8)-NH2 [peptide of SEQ ID NO: 172]", "3.06 nM"),
    ("Y[Aib]QGTFISDYSIYLDKQAA[Ac3c]EFVNWLLAGGPSSGAPPPSC(40K‑TE)-NH2 (not fully specified; reading uncertain) [peptide of SEQ ID NO: 75]", "3.12 nM"),
    ("H[Aib]QGTFISDYSIYLDKQAA[Ac3c]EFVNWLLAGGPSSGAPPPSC(40K‑TE)-NH2 (not fully specified; reading uncertain) [peptide of SEQ ID NO: 74]", "2.52 nM"),
    ("Y[Aib]QGTFTSDYSIYLDKEAA[Aib]KFVNWLLAGGPSSGAPPPSC-NH2 (lactam (positions not given here); also: lactam between underlined residues, underlining not shown) [peptide of SEQ ID NO: 58]", "0.063 nM"),
    ("Y[Aib]QGTFTSDYSIYLDKQAA[Aib]EFVC(40K‑ME)WLLAGGPSSGAPPPSK(Palmitoyl)-NH2 (not fully specified; reading uncertain) [peptide of SEQ ID NO: 70]", "0.018 nM"),
    ("Y[Aib]QGTFTSDYSIYLDKQAA[Aib]EFVC(40K‑TE PEG)WLLAGGPSSGAPPPSK(Lauroyl)-NH2 [peptide of SEQ ID NO: 173]", "0.19 nM"),
    ("YXEGTFTSDYSIYLDKQAAXEFVNWLLAGGPSSGAPPPSC (not fully specified; aib at 2; acpc at 20; C-terminal C(40K-TE); NH2) [peptide of SEQ ID NO: 73]", "~10 nM"),
    ("Y[Aib]QGTFTSDK([γGlu-Myristoyl])SIYLDKQAA[Aib]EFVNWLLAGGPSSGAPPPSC(40K‑ME)-NH2 (reading uncertain) [peptide of SEQ ID NO: 68]", "50.1 nM"),
]
